# TARGET_SYSTEM: α-glucosidase
# PROTOCOL_SUMMARY: α-Glucosidase inhibition assay (I% and IC50)
# CONDITIONS_USED: read-out: IC50 α-Glucosidase; mean ± S.E.M., n = 3; substrate p-nitrophenyl-α-D-glucopyranoside, 37 °C, pH 7.0
MEASURED_ATTRIBUTE: pIC50
One number for each entry, as −log10 of the molar value.

Q: Output measured pIC50 for this item: CCCCCCCCCCCCNCCCCNC(=O)[C@@H](NC(=O)OC(C)(C)C)[C@@H](C)CC
Result: 4.29

====

# TARGET_SYSTEM: porcine pancreatic α-amylase (Sus scrofa, UniProt P00690)
# Construct: purchased Sigma-Aldrich
# Sequence (P00690 16-511): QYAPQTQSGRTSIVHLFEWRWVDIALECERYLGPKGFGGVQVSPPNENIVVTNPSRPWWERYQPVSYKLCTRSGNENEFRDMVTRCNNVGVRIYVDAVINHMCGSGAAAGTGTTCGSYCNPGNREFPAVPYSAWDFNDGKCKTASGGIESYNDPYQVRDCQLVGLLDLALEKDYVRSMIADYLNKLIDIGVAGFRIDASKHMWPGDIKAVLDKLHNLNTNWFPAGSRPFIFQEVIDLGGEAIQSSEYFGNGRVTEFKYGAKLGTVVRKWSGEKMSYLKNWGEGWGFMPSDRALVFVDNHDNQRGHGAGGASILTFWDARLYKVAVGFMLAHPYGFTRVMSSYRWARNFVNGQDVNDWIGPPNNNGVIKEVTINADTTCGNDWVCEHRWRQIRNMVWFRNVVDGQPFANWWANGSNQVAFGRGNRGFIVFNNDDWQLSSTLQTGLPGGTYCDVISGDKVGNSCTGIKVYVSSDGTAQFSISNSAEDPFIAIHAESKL
# PROTOCOL_SUMMARY: Kinetic parameters and Lineweaver-Burk analysis, pancreatic α-amylase
# Type: biochemical
# CONDITIONS_USED: inhibitor concentration: acarbose 387, PPC80 730, PPC82 795, PPC84 870, PPC89 675, PPC101 532 µM; no inhibitor Vmax 100.70 ± 0.34
MEASURED_ATTRIBUTE: Vmax (pancreatic α-amylase in presence of inhibitor) (µM/min)
One number for each entry, in µM/min.

CC[C@H](C)[C@H](NC(=O)OC(C)(C)C)C(=O)NCCCN = 94.35

Here is the next item to consider.
Q: Output measured Vmax (pancreatic α-amylase in presence of inhibitor) for this item: CCCCCCCCNC(=O)[C@@H](NC(=O)OC(C)(C)C)[C@@H](C)CC
Result: 91.75
